# Measured On: mu opiate receptor (MOR) (Rattus norvegicus)
# Construct: from tissue; host or cells: striatum (membrane preparation)
# Format: biochemical
# Cond: 1 μM compound + 1 μM β-FNA (selective MOR antagonist); Series C-2
Measured Property: [35S]GTPγS binding, FLNA-Binding Compound as Agonist at 1 μM + BFNA (%)
Only the number, expressed in %, is required.

Some solved cases for reference:
[
  {
    "Compound": "CN1CCC2(CC1)NCC(=O)N2Cc1ccccc1 [Compound C0105M]",
    "Measured On": "mu opiate receptor (MOR) (Rattus norvegicus)",
    "Numeric Result": 73.1
  },
  {
    "Compound": "COc1ccc(S(=O)(=O)N2CCC3(CC2)NCCC(=O)N3)cc1 [Compound C0142M]",
    "Measured On": "mu opiate receptor (MOR) (Rattus norvegicus)",
    "Numeric Result": 98.7
  },
  {
    "Compound": "COc1ccc(S(=O)(=O)N2CCOC23CCCNC3)cc1 (centres unmarked) [Compound C0145M-3]",
    "Measured On": "mu opiate receptor (MOR) (Rattus norvegicus)",
    "Numeric Result": 87.0
  },
  {
    "Compound": "CC(=O)c1ccc(S(=O)(=O)N2CC(CN(C)C)OC23CCN(CC2CC2)CC3)cc1 (centres unmarked) [Compound C0128M]",
    "Measured On": "mu opiate receptor (MOR) (Rattus norvegicus)",
    "Numeric Result": 63.9
  },
  {
    "Compound": "C=CCN1CCC2(CC1)OCCN2S(=O)(=O)c1ccc(C(C)=O)cc1 [Compound C0096M]",
    "Measured On": "mu opiate receptor (MOR) (Rattus norvegicus)",
    "Numeric Result": 127.1
  },
  {
    "Compound": "COc1ccc(S(=O)(=O)N2CCOC23CCNCC3)cc1",
    "Measured On": "mu opiate receptor (MOR) (Rattus norvegicus)",
    "Numeric Result": 72.2
  }
]

## Input Looking for the measured [35S]GTPγS binding, FLNA-Binding Compound as Agonist at 1 μM + BFNA of COc1ccc(S(=O)(=O)N2CCOC23CCN(C(C)C)CC3)cc1 [Compound C0133M] , can you help?
## Output 72.4

## Input Then COc1ccc(S(=O)(=O)N2CCSC23CCNCC3)cc1 ?
## Output 56.2

## Input Then COc1ccc(NC(=O)N2CCC3(CC2)NCCO3)cc1 [Compound C0151M-2] ?
## Output 212.8

## Input Then COc1ccc(S(=O)(=O)N2CCOC23CCN(C(=O)OC(C)(C)C)CC3)cc1 ?
## Output 83.3

## Input Then CC(=O)c1ccc(S(=O)(=O)N2CCC3(CC2)NCCS3)cc1 ?
## Output 143.9

====

# Measured On: mu opiate receptor (MOR) (Rattus norvegicus, UniProt P33535)
# Construct: from tissue; host or cells: striatum (membrane preparation)
# Sequence (P33535 whole entry): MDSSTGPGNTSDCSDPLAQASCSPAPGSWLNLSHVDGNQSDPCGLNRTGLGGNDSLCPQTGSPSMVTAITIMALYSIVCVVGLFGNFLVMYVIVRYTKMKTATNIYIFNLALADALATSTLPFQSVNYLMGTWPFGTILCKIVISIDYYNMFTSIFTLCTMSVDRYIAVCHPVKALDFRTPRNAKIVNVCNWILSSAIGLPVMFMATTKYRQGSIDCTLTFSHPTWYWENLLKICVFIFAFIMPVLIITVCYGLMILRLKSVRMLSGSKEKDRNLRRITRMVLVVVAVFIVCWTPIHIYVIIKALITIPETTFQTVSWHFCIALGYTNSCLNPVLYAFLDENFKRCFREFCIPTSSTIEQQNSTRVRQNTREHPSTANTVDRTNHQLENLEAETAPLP
# Assay type: biochemical
Measured Property: % DAMGO + BFNA (%)
Only the number, expressed in %, is required.

[
  {
    "Molecule": "CCc1ccc(S(=O)(=O)N2CCOC23CCN(CC2CC2)CC3)cc1 [Compound C0135M]",
    "% DAMGO + BFNA, %": 233.6
  }
]

## Input Looking for the measured % DAMGO + BFNA of COc1cc(S(=O)(=O)N2CCC3(CC2)OCCN3S(=O)(=O)c2cc(OC)c(OC)c(OC)c2)cc(OC)c1OC [Compound C0062] , can you help?
## Output 149.9

## Input Then COc1c2c(cc3c1C(CC(=O)CCc1ccc(O)cc1)[N+](C)(C)CC3)OCO2 (centres unmarked) [Compound B0028] ?
## Output 125.3

## Input Then COc1ccc(S(=O)(=O)N2CCCC3(C2)OCCN3S(=O)(=O)c2ccc(OC)cc2)cc1 (centres unmarked) [Compound C0145M] ?
## Output 95.3

## Input Then CC1CCC(C(C)C)C(OCC(O)CN2CCC(=O)C(C)C2)C1 (centres unmarked) [Compound A0056] ?
## Output 43.6

## Input Then COc1ccccc1S(=O)(=O)N1CCC2(CC1)OCCN2S(=O)(=O)c1ccccc1OC [Compound C0003] ?
## Output 163.9

## Input Then CC1CN(CC(O)COc2ccccc2C(C)C)CC(C)O1 (centres unmarked) [Compound A0029] ?
## Output 84.8

## Input Then COc1ccc(S(=O)(=O)N2CCC3(CC2)NCCC(=O)N3)cc1 [Compound C0142M] ?
## Output 251.1
